// provenance: the supplement of paper PMC11196671

Assay Overview: MHET released, HPLC; higher = more MHET released; extreme values may be limits of the assay
Test Conditions: PET substrate: cryPow; 70 °C; pH 6.5; 24 h
Observation Type: MHET released (mM)

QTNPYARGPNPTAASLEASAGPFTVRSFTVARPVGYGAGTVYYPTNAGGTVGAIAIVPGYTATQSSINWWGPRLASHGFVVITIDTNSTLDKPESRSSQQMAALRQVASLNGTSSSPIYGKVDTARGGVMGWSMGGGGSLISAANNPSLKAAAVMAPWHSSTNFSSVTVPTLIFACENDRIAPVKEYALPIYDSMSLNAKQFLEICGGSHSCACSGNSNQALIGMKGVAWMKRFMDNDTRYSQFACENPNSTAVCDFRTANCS [HotPETase]; 0.386
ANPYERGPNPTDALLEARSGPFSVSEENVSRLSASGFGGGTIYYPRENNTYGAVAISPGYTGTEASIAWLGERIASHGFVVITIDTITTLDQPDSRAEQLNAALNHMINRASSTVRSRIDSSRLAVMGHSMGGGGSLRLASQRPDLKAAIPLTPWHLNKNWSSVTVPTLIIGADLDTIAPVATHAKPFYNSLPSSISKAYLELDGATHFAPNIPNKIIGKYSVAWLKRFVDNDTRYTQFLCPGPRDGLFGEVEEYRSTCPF [TfCut2]; 0
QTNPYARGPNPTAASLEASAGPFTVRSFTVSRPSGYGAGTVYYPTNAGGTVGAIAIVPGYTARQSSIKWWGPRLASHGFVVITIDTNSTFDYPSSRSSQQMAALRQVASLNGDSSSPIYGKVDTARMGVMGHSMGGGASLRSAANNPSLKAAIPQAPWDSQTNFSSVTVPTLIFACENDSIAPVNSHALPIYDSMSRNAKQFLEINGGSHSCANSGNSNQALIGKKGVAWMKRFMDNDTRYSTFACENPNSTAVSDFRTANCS [DuraPETase]; 0.0107

----------
Assay Overview: PET hydrolysis product formed (TPA+MHET+BHET, UV-Vis) per mg enzyme (mmol/mg enzyme); higher = more PET depolymerisation activity; extreme values may be limits of the assay
Test Conditions: PET substrate: aFilm; 60 °C; pH 7.5; 2 h
Observation Type: PET hydrolysis product formed

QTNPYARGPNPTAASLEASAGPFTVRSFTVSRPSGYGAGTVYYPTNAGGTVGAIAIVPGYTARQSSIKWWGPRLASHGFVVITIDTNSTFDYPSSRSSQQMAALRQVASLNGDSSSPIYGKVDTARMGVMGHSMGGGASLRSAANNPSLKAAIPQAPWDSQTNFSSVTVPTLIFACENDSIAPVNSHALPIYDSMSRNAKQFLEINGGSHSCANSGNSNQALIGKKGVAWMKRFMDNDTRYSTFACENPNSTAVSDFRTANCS [DuraPETase]; 0

----------
Assay Overview: BHET released, HPLC; higher = more BHET released; extreme values may be limits of the assay
Test Conditions: PET substrate: aFilm; 70 °C; pH 6.5; 24 h
Quick reference for BHET released among some sequences
Observation Type: BHET released (mM)

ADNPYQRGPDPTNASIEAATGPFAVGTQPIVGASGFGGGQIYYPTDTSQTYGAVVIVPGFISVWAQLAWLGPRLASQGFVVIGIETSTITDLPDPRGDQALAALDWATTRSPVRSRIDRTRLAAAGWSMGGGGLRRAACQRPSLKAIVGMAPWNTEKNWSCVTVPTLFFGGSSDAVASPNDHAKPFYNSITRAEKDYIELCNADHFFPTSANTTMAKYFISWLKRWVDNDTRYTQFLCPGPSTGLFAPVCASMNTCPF [CaPETaseM9]; 0
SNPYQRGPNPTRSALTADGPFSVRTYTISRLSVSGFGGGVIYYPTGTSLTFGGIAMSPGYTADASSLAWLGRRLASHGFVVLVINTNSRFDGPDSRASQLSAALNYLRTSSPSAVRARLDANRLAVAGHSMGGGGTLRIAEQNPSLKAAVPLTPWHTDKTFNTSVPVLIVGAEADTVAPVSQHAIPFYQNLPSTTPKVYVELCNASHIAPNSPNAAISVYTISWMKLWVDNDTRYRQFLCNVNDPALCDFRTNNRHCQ [LCC-ICCG RIP]; 0
